protocolDescription: Solubility study: maximum solubility of terpenes in solvent by stepwise addition and visual inspection
Type: physicochemical
settings: solvent propylene glycol with 8%w/w benzyl alcohol; ambient temperature (18 to 22 degrees Celsius)
Experimental: A solubility study was carried out to assess the solubility of a range of terpenes in propylene glycol (PG) and benzyl alcohol (BA), and a mixture of propylene glycol (PG) and 8%w/w benzyl alcohol (BA) (materials were sourced from Sigma). In particular, the maximum solubility at ambient temperature was assessed following the stepwise addition of each terpene to the relevant solvent or solvent mixture. […]
measurementKind: Max. solubility of terpenes in solvent (% w/w) PG + 8% BA
// return numeric value only (unit: % w/w, not printed)

compound	result
C=CC(C)(CCC=C(C)C)OC(C)=O (stereo not shown) [Linalyl acetate]	6.0

Entry C=C1CC/C=C(\C)CC[C@@H]2[C@@H]1CC2(C)C [beta-caryophyllene] : reported Max. solubility of terpenes in solvent (% w/w) PG + 8% BA = ?
2.4

Entry CC(C)=CCCC(C)CCO (stereo not drawn) [beta-citronellol] : reported Max. solubility of terpenes in solvent (% w/w) PG + 8% BA = ?
70.3

Entry C=C[C@](C)(O)CCC=C(C)C [R- linalool] : reported Max. solubility of terpenes in solvent (% w/w) PG + 8% BA = ?
74.3

Source of measurements: patent EP4581948A1
